The listing below reports AC50 for molecules tested on Motilin receptor (Homo sapiens, UniProt O43193). Further: assay procedure not described here.
Sequence (O43193 whole entry): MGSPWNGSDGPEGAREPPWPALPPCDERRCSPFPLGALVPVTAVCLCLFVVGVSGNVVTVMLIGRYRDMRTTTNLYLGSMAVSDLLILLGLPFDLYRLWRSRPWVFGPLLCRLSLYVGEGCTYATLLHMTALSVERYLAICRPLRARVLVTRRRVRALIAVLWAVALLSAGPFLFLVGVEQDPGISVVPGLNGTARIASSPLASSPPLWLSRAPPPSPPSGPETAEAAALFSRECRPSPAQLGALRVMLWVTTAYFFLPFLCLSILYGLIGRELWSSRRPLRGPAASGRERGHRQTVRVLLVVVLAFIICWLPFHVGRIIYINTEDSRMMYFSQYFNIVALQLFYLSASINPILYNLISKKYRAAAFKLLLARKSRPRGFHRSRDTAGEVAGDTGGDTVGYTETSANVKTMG
measuredParameter: AC50

molecule	measuredParameter	reportedValue
C#CCOc1ccc(N)cc1C(=O)NCCCC [PARSALMIDE]	AC50	> 30 µM
Oc1ccc2c(c1)CC[C@H](c1ccccc1)[C@@H]2c1ccc(OCCN2CCCC2)cc1	AC50	2.9 µM
CCOC(=O)O[C@]1(C(=O)OCCl)CC[C@H]2[C@@H]3CCC4=CC(=O)C=C[C@]4(C)[C@H]3[C@@H](O)C[C@@]21C [LOTEPREDNOL ETABONATE]	AC50	> 30 µM
[H]/N=C(/N)N/C(=N/[H])NCCc1ccccc1	AC50	> 10 µM
CCC(=O)O[C@H]1CC[C@H]2[C@@H]3CCC4=CC(=O)CC[C@]4(C)[C@H]3CC[C@]12C [TESTOSTERONE PROPIONATE]	AC50	> 10 µM
CC(C)c1nc(N(C)S(C)(=O)=O)nc(-c2ccc(F)cc2)c1/C=C/[C@@H](O)C[C@@H](O)CC(=O)O	AC50	> 30 µM
NC(=O)CN1CCCC1=O	AC50	> 30 µM
C=C[C@H]1C[N@@]2CC[C@H]1C[C@@H]2[C@@H](O)c1ccnc2ccc(OC)cc12	AC50	> 10 µM
Nc1ncn([C@H]2C[C@H](O)[C@@H](CO)O2)c(=O)n1	AC50	> 30 µM
